# TARGET_SYSTEM: HIV-1 NL43 Env (HIV-1 strain NL43)
# ASSAY_PROCEDURE: cell-based or functional assay
MEASURE_NAME: IC50 neutralization, 1 hour virus/Ab incubation (µg/mL)
Give bare numbers, in µg/mL.

What does the data say about its IC50 neutralization, 1 hour virus/Ab incubation? Entry: 1460_G14 (PGG14) (antibody, human IgG1, kappa, V domains shown) VH: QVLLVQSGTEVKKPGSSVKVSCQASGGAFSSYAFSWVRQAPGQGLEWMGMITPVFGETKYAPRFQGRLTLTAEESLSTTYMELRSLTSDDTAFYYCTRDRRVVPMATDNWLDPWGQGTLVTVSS VL: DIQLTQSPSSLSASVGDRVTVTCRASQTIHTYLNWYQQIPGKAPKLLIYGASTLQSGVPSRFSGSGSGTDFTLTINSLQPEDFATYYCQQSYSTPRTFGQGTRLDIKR
0.17

meta.source: patent US20160264649A1
